Source of measurements: patent US20240247080A1

Molecular target: T1, human neuropeptide Y2 receptor (human, UniProt P49146 1-381)
T1 sequence (looked up): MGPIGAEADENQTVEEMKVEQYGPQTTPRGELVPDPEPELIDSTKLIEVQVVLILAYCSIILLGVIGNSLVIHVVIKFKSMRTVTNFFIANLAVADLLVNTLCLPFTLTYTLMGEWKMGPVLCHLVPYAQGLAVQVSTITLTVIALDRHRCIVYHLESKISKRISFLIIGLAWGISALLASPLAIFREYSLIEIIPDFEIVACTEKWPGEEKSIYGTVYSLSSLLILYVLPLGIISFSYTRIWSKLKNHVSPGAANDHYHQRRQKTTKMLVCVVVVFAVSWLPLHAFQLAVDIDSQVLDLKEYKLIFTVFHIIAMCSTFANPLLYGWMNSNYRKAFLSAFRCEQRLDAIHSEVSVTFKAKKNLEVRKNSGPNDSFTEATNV
Test: cell-based or functional assay
Entries and their measured EC50 CreLuc hNPY2R 0.5% hP follow.

[
  {
    "binder": "YXEGTFTSDYSIXLEKQAQXAFVEWLIKGGPSEGQSIRHYYNWLTRQRY (Aib at 2, 13, 20; K28 side chain: C20DA-gGlu-gGlu-gGlu-gGlu-gGlu-gGlu-eLys; C-terminal NH2) [Compound 134]",
    "EC50 CreLuc hNPY2R 0.5% hP": "0.0101 µM"
  },
  {
    "binder": "YXEGTFTSDYSIXLDKQAQXAFVEWLIKGGPSSGASLRHYYNWLTRQRY (Aib at 2, 13, 20; K28 side chain: C20DA-gGlu-gGlu-gGlu-gGlu-gGlu-gGlu-eLys; C-terminal NH2) [Compound 128]",
    "EC50 CreLuc hNPY2R 0.5% hP": "0.0248 µM"
  },
  {
    "binder": "YXEGTFTSDYSIXLEKQAQXAFVEWLIKGGPSSGASXRHYYNWLTRQRY (Aib at 2, 13, 20; Tle at 37; K28 side chain: C20DA-gGlu-gGlu-gGlu-gGlu-gGlu-gGlu-eLys; C-terminal NH2) [Compound 103]",
    "EC50 CreLuc hNPY2R 0.5% hP": "0.012 µM"
  }
]
